# (fold better) Compound 1, CHK1 cellular potency MIA per entry
# Tested on: HT29 cells
# PROTOCOL TEXT: Cellular potency in Mitosis Inhibition Assay (MIA), checkpoint abrogation after etoposide
# Assay type: cell-based
# EXPERIMENTAL PARAMETERS: fold by which Compound 1 is more potent than the compound

Past entries and their recorded results:
[
  {
    "MOLECULE": "COCCOc1ccc(-c2cnc(Nc3cnc(C#N)cn3)cc2NC[C@H]2CNCCO2)cc1",
    "TGT": "HT29 cells",
    "RECORDED RESULT": "~20 fold"
  },
  {
    "MOLECULE": "COC(C)(C)C#Cc1cnc(Nc2cnc(C#N)cn2)cc1NC[C@@H]1CNCCO1",
    "TGT": "HT29 cells",
    "RECORDED RESULT": "~4 fold"
  }
]

Field: next molecule
Can you look up (fold better) Compound 1, CHK1 cellular potency MIA on HT29 cells for `COCc1ccc(-c2cnc(Nc3cnc(C#N)cn3)cc2NC[C@H]2CNCCO2)cc1` ?
~19 fold

====

# System: HT29 cells
# PROTOCOL TEXT: Cellular potency in Mitosis Inhibition Assay (MIA), checkpoint abrogation after etoposide
# Assay type: cell-based
# EXPERIMENTAL PARAMETERS: fold by which Compound 1 is more potent than the compound
QUANTITY KIND: (fold better) Compound 1, CHK1 cellular potency MIA

Past entries and their recorded results:
[
  {
    "MOLECULE": "N#Cc1cnc(Nc2cc(NCC3CNCCO3)c(C(=O)Nc3ccccc3)cn2)cn1 (stereo not drawn)",
    "RECORDED RESULT": "~27 fold"
  },
  {
    "MOLECULE": "COCCOc1ccc(-c2cnc(Nc3cnc(C#N)cn3)cc2NC[C@@H]2CNCCO2)cc1",
    "RECORDED RESULT": "~34 fold"
  }
]

Field: next molecule
What does the record list as (fold better) Compound 1, CHK1 cellular potency MIA for `COCc1ccc(-c2cnc(Nc3cnc(C#N)cn3)cc2NC[C@@H]2CNCCO2)cc1` ?
~30 fold
